Exercise: state measured HDAC2 activity raw data (signal) for each of the compounds provided.
target: HDAC2 (Homo sapiens, UniProt Q92769); construct: purchased Reaction Biology Corporation (assay run by the CRO); test: HDAC2 inhibition, full IC50 measurement (Reaction Biology; fluorogenic p53 peptide RHKK(Ac)AMC); assay type: biochemical; settings: Conc. 1.23E-07 M, t1
Sequence (Q92769 whole entry): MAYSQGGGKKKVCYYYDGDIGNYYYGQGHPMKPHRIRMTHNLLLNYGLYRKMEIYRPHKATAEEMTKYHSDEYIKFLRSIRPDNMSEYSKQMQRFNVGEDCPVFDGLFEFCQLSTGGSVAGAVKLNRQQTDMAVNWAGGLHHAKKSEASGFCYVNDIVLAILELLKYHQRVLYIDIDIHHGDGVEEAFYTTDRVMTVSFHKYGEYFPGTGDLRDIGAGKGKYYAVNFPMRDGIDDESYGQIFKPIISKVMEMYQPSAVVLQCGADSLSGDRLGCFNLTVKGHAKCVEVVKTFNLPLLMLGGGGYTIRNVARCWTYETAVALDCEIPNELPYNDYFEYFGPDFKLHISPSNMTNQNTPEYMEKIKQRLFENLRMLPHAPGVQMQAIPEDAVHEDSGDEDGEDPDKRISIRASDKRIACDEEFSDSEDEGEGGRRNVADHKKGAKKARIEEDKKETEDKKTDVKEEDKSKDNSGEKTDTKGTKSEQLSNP
Peptide text beside a SMILES is read from it.
Answer as a number with no unit attached.

What the record says about NCCCC[C@H]1NC(=O)[C@H](CCC(N)=O)NC(=O)[C@H](CCC(=O)O)NC(=O)[C@@H]2CCCN2C(=O)[C@H](CC(N)=O)NC(=O)[C@H](CCCCCS)NC(=O)CNC(=O)[C@H](Cc2c[nH]c3ccccc23)NC1=O [des1.1.1, SHA-Asn-Pro-Glu-Gln-dLys-Trp-Gly] (HELM PEPTIDE1{E.Q.[dK].W.G.[O=C([C@H](CCCCCS)N[*:1])[*:2]].N.P}$PEPTIDE1,PEPTIDE1,1:R1-8:R2$$$V2.0) : HDAC2 activity raw data (signal) is 517115

What the record says about CC(C)C[C@H]1NC(=O)[C@H](Cc2c[nH]c3ccccc23)NC(=O)[C@H](CCCCCS)NC(=O)[C@@H](Cc2ccc(O)cc2)NC(=O)[C@@H](C(C)C)NC(=O)[C@H](Cc2c[nH]cn2)NC(=O)CNC(=O)CNC(=O)[C@@H](CO)NC1=O [des2.2.0, SHA-Trp-dLeu-dSer-Gly-Gly-His-dVal-dTyr] (HELM PEPTIDE1{G.G.H.[dV].[dY].[O=C([C@H](CCCCCS)N[*:1])[*:2]].W.[dL].[dS]}$PEPTIDE1,PEPTIDE1,1:R1-9:R2$$$V2.0) : HDAC2 activity raw data (signal) is 837329

What the record says about CCCC[C@H]1NC(=O)[C@H](Cc2ccccc2)NC(=O)[C@H](CCCCCS)NC(=O)[C@@H](CCCNC(=N)N)NC(=O)[C@H](CC(=O)O)NC(=O)[C@@H](CO)NC(=O)[C@@H](C)NC(=O)[C@H](CCCCN)NC1=O [des4.3.1, SHA-Phe-dNle-Lys-dAla-dSer-Asp-dArg] (HELM PEPTIDE1{D.[dR].[O=C([C@H](CCCCCS)N[*:1])[*:2]].F.[CCCC[C@@H](N[*:1])C(=O)[*:2]].K.[dA].[dS]}$PEPTIDE1,PEPTIDE1,1:R1-8:R2$$$V2.0) : HDAC2 activity raw data (signal) is 1050894

What the record says about NCCCC[C@@H]1NC(=O)[C@@H]2C[C@@H](O)CN2C(=O)[C@H](CC(N)=O)NC(=O)[C@H](CCCCCS)NC(=O)CNC(=O)[C@H](Cc2c[nH]c3ccccc23)NC(=O)[C@@H](CCCCN)NC(=O)[C@H](CCC(N)=O)NC1=O [des1.1.2, SHA-Asn-Hpr-Lys-Gln-dLys-Trp-Gly] (HELM PEPTIDE1{G.[O=C([C@H](CCCCCS)N[*:1])[*:2]].N.[Hyp].K.Q.[dK].W}$PEPTIDE1,PEPTIDE1,1:R1-8:R2$$$V2.0) : HDAC2 activity raw data (signal) is 836305

What the record says about CCCC[C@H]1NC(=O)[C@H](Cc2ccccc2)NC(=O)[C@H](CCCCCS)NC(=O)[C@@H](CO)NC(=O)[C@H](CC(=O)O)NC(=O)[C@@H](CO)NC(=O)[C@@H](C)NC(=O)[C@H](CCCCN)NC1=O [des4.3.1.1, SHA-Phe-dNle-Lys-dAla-dSer-Asp-dSer] (HELM PEPTIDE1{D.[dS].[O=C([C@H](CCCCCS)N[*:1])[*:2]].F.[CCCC[C@@H](N[*:1])C(=O)[*:2]].K.[dA].[dS]}$PEPTIDE1,PEPTIDE1,1:R1-8:R2$$$V2.0) : HDAC2 activity raw data (signal) is 1764651

* * *

Target: HDAC2 (Homo sapiens, UniProt Q92769)
Construct: purchased Reaction Biology Corporation (assay run by the CRO)
Experiment: HDAC2 inhibition, full IC50 measurement (Reaction Biology; fluorogenic p53 peptide RHKK(Ac)AMC)
Type: biochemical
Conditions: Conc. 1.37E-08 M, t1
Method: The assay was performed using 50 μM fluorogenic peptide from p53 residues 379-382 [RHKK(Ac)AMC] in a base reaction buffer of 50 mM Tris-HCl at pH 8.0, 137 mM NaCl, 2.7 mM KCl, 1 mM MgCl2, and freshly added 1 mg/ml BSA and 1% DMSO. […] Peptide concentrations were calculated based on mass of lyophilized peptide and its molecular weight. […]
Peptide text beside a SMILES is read from it.
READOUT_KIND: HDAC2 activity raw data (signal)
Answer as a number with no unit attached.

What the record says about C[C@H](O)[C@H]1NC(=O)[C@H](Cc2c[nH]c3ccccc23)NC(=O)[C@H](CCCCCS)NC(=O)[C@H](CCCCN)NC(=O)[C@@H](CC(=O)O)NC(=O)[C@@H](CCCCN)NC(=O)[C@@H](CO)NC(=O)[C@H](CC(N)=O)NC(=O)[C@H](CC(=O)O)NC1=O [des2.1.0, SHA-Trp-dThr-Asp-Asn-dSer-dLys-dAsp-Lys] (HELM PEPTIDE1{D.N.[dS].[dK].[dD].K.[O=C([C@H](CCCCCS)N[*:1])[*:2]].W.[dT]}$PEPTIDE1,PEPTIDE1,1:R1-9:R2$$$V2.0) : HDAC2 activity raw data (signal) is 771007

What the record says about CCCC[C@H]1NC(=O)[C@H](Cc2ccccc2)NC(=O)[C@H](CCCCCS)NC(=O)[C@@H](CCCNC(=N)N)NC(=O)[C@H](C)NC(=O)[C@@H](CO)NC(=O)[C@@H](C)NC(=O)[C@H](CCCCN)NC1=O [des4.3.1.3, SHA-Phe-dNle-Lys-dAla-dSer-Ala-dArg] (HELM PEPTIDE1{A.[dR].[O=C([C@H](CCCCCS)N[*:1])[*:2]].F.[CCCC[C@@H](N[*:1])C(=O)[*:2]].K.[dA].[dS]}$PEPTIDE1,PEPTIDE1,1:R1-8:R2$$$V2.0) : HDAC2 activity raw data (signal) is 1736023

* * *

target: HDAC2 (Homo sapiens, UniProt Q92769); construct: purchased Reaction Biology Corporation (assay run by the CRO); experiment: HDAC2 inhibition, full IC50 measurement (Reaction Biology; fluorogenic p53 peptide RHKK(Ac)AMC); assay type: biochemical; details: Conc. 5.08E-10 M, t1
Peptide text beside a SMILES is read from it.
READOUT_KIND: HDAC2 activity raw data (signal)
Answer as a number with no unit attached.

Hey, HDAC2 (Homo sapiens, UniProt Q92769) data for CC(C)C[C@H]1NC(=O)[C@H](Cc2c[nH]c3ccccc23)NC(=O)[C@H](CCCCCS)NC(=O)[C@@H](Cc2ccc(O)cc2)NC(=O)[C@@H](C(C)C)NC(=O)[C@H](Cc2c[nH]cn2)NC(=O)CNC(=O)CNC(=O)[C@@H](CO)NC1=O [des2.2.0, SHA-Trp-dLeu-dSer-Gly-Gly-His-dVal-dTyr] (HELM PEPTIDE1{G.G.H.[dV].[dY].[O=C([C@H](CCCCCS)N[*:1])[*:2]].W.[dL].[dS]}$PEPTIDE1,PEPTIDE1,1:R1-9:R2$$$V2.0) : HDAC2 activity raw data (signal) came out at 632244

* * *

biological target: HDAC6 (Homo sapiens, UniProt Q9UBN7); construct: purchased Reaction Biology Corporation (assay run by the CRO); test: HDAC6 inhibition, full IC50 measurement (Reaction Biology; fluorogenic p53 peptide RHKK(Ac)AMC); format: biochemical; conditions: Conc. 1.37E-08 M, t1
Sequence (Q9UBN7 whole entry): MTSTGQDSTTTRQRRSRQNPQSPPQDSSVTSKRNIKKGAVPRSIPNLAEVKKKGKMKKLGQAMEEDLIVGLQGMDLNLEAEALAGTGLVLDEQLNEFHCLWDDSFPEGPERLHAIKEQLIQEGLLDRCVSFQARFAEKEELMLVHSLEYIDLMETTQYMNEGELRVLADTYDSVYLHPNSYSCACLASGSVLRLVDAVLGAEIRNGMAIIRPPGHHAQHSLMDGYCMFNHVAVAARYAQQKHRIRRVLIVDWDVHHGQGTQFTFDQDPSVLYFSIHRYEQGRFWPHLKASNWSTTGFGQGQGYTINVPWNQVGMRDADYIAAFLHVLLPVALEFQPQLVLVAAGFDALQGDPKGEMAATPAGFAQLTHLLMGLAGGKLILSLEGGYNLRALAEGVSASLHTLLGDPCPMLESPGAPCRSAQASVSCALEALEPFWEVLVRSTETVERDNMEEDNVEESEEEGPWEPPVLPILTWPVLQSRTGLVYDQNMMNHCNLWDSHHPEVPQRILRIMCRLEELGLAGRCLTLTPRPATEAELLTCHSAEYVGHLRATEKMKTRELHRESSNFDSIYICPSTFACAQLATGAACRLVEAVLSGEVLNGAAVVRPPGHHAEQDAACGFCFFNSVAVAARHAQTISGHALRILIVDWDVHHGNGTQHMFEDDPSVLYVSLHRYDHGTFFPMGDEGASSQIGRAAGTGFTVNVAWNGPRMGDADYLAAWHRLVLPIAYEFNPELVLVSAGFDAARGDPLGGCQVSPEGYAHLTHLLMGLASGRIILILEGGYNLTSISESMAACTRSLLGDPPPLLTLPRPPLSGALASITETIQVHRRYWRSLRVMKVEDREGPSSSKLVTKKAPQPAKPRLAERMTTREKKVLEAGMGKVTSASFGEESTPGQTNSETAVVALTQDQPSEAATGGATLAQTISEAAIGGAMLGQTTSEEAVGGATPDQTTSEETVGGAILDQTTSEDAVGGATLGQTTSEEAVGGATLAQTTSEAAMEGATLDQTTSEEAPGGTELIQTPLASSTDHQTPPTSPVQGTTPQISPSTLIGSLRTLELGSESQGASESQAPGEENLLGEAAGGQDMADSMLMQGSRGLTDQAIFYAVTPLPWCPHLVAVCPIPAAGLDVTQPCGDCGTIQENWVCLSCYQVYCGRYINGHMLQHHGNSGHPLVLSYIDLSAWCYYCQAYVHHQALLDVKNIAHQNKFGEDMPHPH
Peptide text beside a SMILES is read from it.
READOUT_KIND: HDAC6 activity raw data (signal)
Answer as a number with no unit attached.

Hey, HDAC6 (Homo sapiens, UniProt Q9UBN7) data for CCCC[C@H]1NC(=O)[C@H](Cc2ccccc2)NC(=O)[C@H](CCCCCS)NC(=O)[C@@H](CCCNC(=N)N)NC(=O)[C@H](C)NC(=O)[C@@H](CO)NC(=O)[C@@H](C)NC(=O)[C@H](CCCCN)NC1=O [des4.3.1.3, SHA-Phe-dNle-Lys-dAla-dSer-Ala-dArg] (HELM PEPTIDE1{A.[dR].[O=C([C@H](CCCCCS)N[*:1])[*:2]].F.[CCCC[C@@H](N[*:1])C(=O)[*:2]].K.[dA].[dS]}$PEPTIDE1,PEPTIDE1,1:R1-8:R2$$$V2.0) : HDAC6 activity raw data (signal) came out at 703698

* * *

Exercise: state measured HDAC2 activity raw data (signal) for each of the compounds provided.
target: HDAC2 (Homo sapiens, UniProt Q92769); construct: purchased Reaction Biology Corporation (assay run by the CRO); experiment: HDAC2 inhibition, full IC50 measurement (Reaction Biology; fluorogenic p53 peptide RHKK(Ac)AMC); assay type: biochemical; conditions: Conc. 1.23E-07 M, t1
Peptide text beside a SMILES is read from it.
Answer as a number with no unit attached.

What the record says about CCCC[C@H]1NC(=O)[C@H](CC(=O)O)NC(=O)[C@@H](CO)NC(=O)[C@@H](C)NC(=O)[C@H](CCCCN)NC(=O)[C@@H](CCCCN)NC(=O)[C@H](Cc2ccccc2)NC(=O)[C@H](CCCCCS)NC1=O [des4.3.1.2, SHA-Phe-dLys-Lys-dAla-dSer-Asp-dNle] (HELM PEPTIDE1{D.[CCCC[C@@H](N[*:1])C(=O)[*:2]].[O=C([C@H](CCCCCS)N[*:1])[*:2]].F.[dK].K.[dA].[dS]}$PEPTIDE1,PEPTIDE1,1:R1-8:R2$$$V2.0) : HDAC2 activity raw data (signal) is 1694685

What the record says about CC(C)[C@@H]1NC(=O)[C@H](CCCNC(=N)N)NC(=O)[C@@H](CC(=O)O)NC(=O)[C@H](CO)NC(=O)[C@@H](CO)NC(=O)[C@@H](CCC(=O)O)NC(=O)[C@H](Cc2ccc(O)cc2)NC(=O)[C@H](CCCCCS)NC1=O [des4.2.0, SHA-Tyr-dGlu-dSer-Ser-dAsp-Arg-Val] (HELM PEPTIDE1{R.V.[O=C([C@H](CCCCCS)N[*:1])[*:2]].Y.[dE].[dS].S.[dD]}$PEPTIDE1,PEPTIDE1,1:R1-8:R2$$$V2.0) : HDAC2 activity raw data (signal) is 1083936

What the record says about CCCC[C@H]1NC(=O)[C@H](Cc2ccccc2)NC(=O)[C@H](CCCCCS)NC(=O)[C@@H](CCCNC(=N)N)NC(=O)[C@H](C)NC(=O)[C@@H](CO)NC(=O)[C@@H](C)NC(=O)[C@H](CCCCN)NC1=O [des4.3.1.3, SHA-Phe-dNle-Lys-dAla-dSer-Ala-dArg] (HELM PEPTIDE1{A.[dR].[O=C([C@H](CCCCCS)N[*:1])[*:2]].F.[CCCC[C@@H](N[*:1])C(=O)[*:2]].K.[dA].[dS]}$PEPTIDE1,PEPTIDE1,1:R1-8:R2$$$V2.0) : HDAC2 activity raw data (signal) is 1473586
